# Tested on: S. pneumoniae
# assay-comment: Biological activity against bacterial strains: S. pneumoniae
# Format: cell-based, Streptococcus pneumoniae
# Set-up: unit not given here
# measurement-parameters: strain ATCC700676, macrolide resistant strain
property-name: Biological Activity, S. pneumoniae ATCC700676*
Just the number, please, no unit attached.

Problem: // returns reported Biological Activity, S. pneumoniae ATCC700676* for input CCC1OC(=O)CC(O)C(C)C(OC2OC(C)C(O)C(N(C)C)C2O)C(CC=O)CC(C)C(=NOCCCCOc2ccc3ncccc3c2)C=CC(C)=CC1COC(=O)NCc1ccccc1 (stereo not shown) [Compound EE]
Solution: 0.049

Problem: // returns reported Biological Activity, S. pneumoniae ATCC700676* for input CCC1OC(=O)CC(O)C(C)C(OC2OC(C)C(O)C(N(C)C)C2O)C(CC=O)CC(C)C(=NOCC=Cc2cnc3ccccc3c2)C=CC(C)=CC1COC(=O)NCc1ccccc1 (stereo not shown) [Compound FF]
Solution: 0.049

Problem: What value of Biological Activity, S. pneumoniae ATCC700676* has been reported for the following compound? CCC1OC(=O)CC(O)C(C)C(OC2OC(C)C(O)C(N(C)C)C2O)C(CCN2CC(C)CC(C)C2)CC(C)C(=NOCC(=O)N2CCN(c3ccccc3)CC2)C=CC(C)=CC1CO (stereo not shown) [Compound X]
Solution: 1.56

Problem: What value of measured Biological Activity, S. pneumoniae ATCC700676* is listed for CCC1OC(=O)CC(O)C(C)C(OC2OC(C)C(O)C(N(C)C)C2O)C(CC=O)CC(C)C(=NOCCCOc2ccc3ncccc3c2)C=CC(C)=CC1CN(C)C (single isomer, unassigned) [Compound Y] ?
Solution: 0.025

Problem: Sample CC[C@H]1OC(=O)C[C@@H](O)[C@H](C)[C@@H](OC2OC(C)C(O)C(N(C)C)C2O)[C@@H](CC=O)C[C@@H](C)C(=N/OCCOc2ccccc2)/C=C/C(C)=C/C1CO (stereo partly shown) [Compound IIa] — what was its Biological Activity, S. pneumoniae ATCC700676*?
Solution: 0.20

Problem: Which value of Biological Activity, S. pneumoniae ATCC700676* has been reported for CCC1OC(=O)CC(O)C(C)C(OC2OC(C)C(O)C(N(C)C)C2O)C(CC=O)CC(C)C(=NOCC=Cc2cnc3ccccc3c2)C=CC(C)=CC1CO (single isomer, unassigned) [Compound G] in the records?
Solution: 0.049

Problem: Find the recorded Biological Activity, S. pneumoniae ATCC700676* belonging to CCC1OC(=O)CC(O)C(C)C(OC2OC(C)C(O)C(N(C)C)C2O)C(CCN2CC(C)CC(C)C2)CC(C)C(=NOCCCOc2ccc3ncccc3c2)C=CC(C)=CC1CO (stereo not shown) [Compound S] and report it.
Solution: 12.5

Problem: Fill blank: measured Biological Activity, S. pneumoniae ATCC700676* of the compound CCC1OC(=O)CC(O)C(C)C(OC2OC(C)C(O)C(N(C)C)C2O)C(CCN2CC(C)CC(C)C2)CC(C)C(=NOCCOc2ccccc2)C=CC(C)=CC1COC1OC(C)C(O)C(OC)C1OC (stereo not shown) [Compound O] is ____.
Solution: 1.56

Problem: So what does the record say about Biological Activity, S. pneumoniae ATCC700676* for CCC1OC(=O)CC(O)C(C)C(OC2OC(C)C(O)C(N(C)C)C2O)C(CC=O)CC(C)C(=NOCCCOc2ccc3ncccc3c2)C=CC(C)=CC1COC1OC(C)C(O)C(OC)C1OC (single isomer, unassigned) [Compound BB] ?
Solution: 0.049

Problem: Look up Biological Activity, S. pneumoniae ATCC700676*: CCC1OC(=O)CC(O)C(C)C(OC2OC(C)C(O)C(N(C)C)C2O)C(CCN2CC(C)CC(C)C2)CC(C)C(=NOCCCCOc2ccc3ncccc3c2)C=CC(C)=CC1CO (single isomer, unassigned) [Compound T]
Solution: 6.25

---

# Test system: S. aureus
# assay-comment: Biological activity against bacterial strains: S. aureus
# Assay type: cell-based, Staphylococcus aureus
# Design: unit not given here
# measurement-parameters: strain ATCC6538p
Assign T to entries whose Biological Activity, S. aureus ATCC6538p meets or exceeds 0.8; assign F to the rest.

Problem: Is Biological Activity, S. aureus ATCC6538p at least 0.8? Consider CCC1OC(=O)CC(O)C(C)C(OC2OC(C)C(O)C(N(C)C)C2O)C(CCN2CC(C)CC(C)C2)CC(C)C(=NOCc2ccc(F)cc2)C=CC(C)=CC1COC1OC(C)C(O)C(OC)C1OC (single isomer, unassigned) [Compound P]
Solution: F

Problem: Is Biological Activity, S. aureus ATCC6538p for CCC1OC(=O)CC(O)C(C)C(OC2OC(C)C(O)C(N(C)C)C2O)C(CC=O)CC(C)C(=NOCCCOc2ccc3ncccc3c2)C=CC(C)=CC1COC1OC(C)C(O)C(OC)C1OC (single isomer, unassigned) [Compound AA] at or above 0.8?
Solution: F

Problem: Textbook exercise: given the entry CCC1OC(=O)CC(O)C(C)C(OC2OC(C)C(O)C(N(C)C)C2O)C(CCN2CC(C)CC(C)C2)CC(C)C(=NOCCCOc2ccc3ncccc3c2)C=CC(C)=CC1CO (stereo not drawn) [Compound S] , state whether its Biological Activity, S. aureus ATCC6538p is greater than or equal to 0.8.
Solution: T

Problem: Does CCC1OC(=O)CC(O)C(C)C(OC2OC(C)C(O)C(N(C)C)C2O)C(CC=O)CC(C)C(=NOCC#Cc2cnc3ccccc3c2)C=CC(C)=CC1CO (single isomer, unassigned) [Compound E] have a reported Biological Activity, S. aureus ATCC6538p of at least 0.8?
Solution: F

Problem: Identify whether the reported Biological Activity, S. aureus ATCC6538p of the following compound is 0.8 or greater: CCC1OC(=O)CC(O)C(C)C(OC2OC(C)C(O)C(N(C)C)C2O)C(CC=O)CC(C)C(=NOCCCCOc2ccc3ncccc3c2)C=CC(C)=CC1CO (stereo not drawn)
Solution: F

Problem: Is Biological Activity, S. aureus ATCC6538p for CCC1OC(=O)CC(O)C(C)C(OC2OC(C)C(O)C(N(C)C)C2O)C(CCN2CC(C)CC(C)C2)CC(C)C(=NOCCCOc2ccc3ncccc3c2)C=CC(C)=CC1CO (stereo not drawn) [Compound R] at or above 0.8?
Solution: T

Problem: State whether the measured Biological Activity, S. aureus ATCC6538p reaches 0.8, counting equality as reaching it, for CC[C@H]1OC(=O)C[C@@H](O)[C@H](C)[C@@H](OC2OC(C)C(O)C(N(C)C)C2O)[C@@H](CC=O)C[C@@H](C)C(=N/OCc2ccc(F)cc2)/C=C/C(C)=C/C1CO (stereo partly drawn)
Solution: F

Problem: // inclusive: Biological Activity, S. aureus ATCC6538p at least 0.8? input: CCC1OC(=O)CC(O)C(C)C(OC2OC(C)C(O)C(N(C)C)C2O)C(CCN2CC(C)CC(C)C2)CC(C)C(=NOCCCCOc2ccc3ncccc3c2)C=CC(C)=CC1CO (single isomer, unassigned) [Compound T]
Solution: T

---

# Test system: Haemophilus Influenzae
# assay-comment: H. influenzae Activity
# Assay type: cell-based
# measurement-parameters: strain ATCC49766
Would you mind telling me the reported H. influenzae Activity, strain ATCC49766 of each entry?
Please respond with just the number, no unit label.

Problem: Find H. influenzae Activity, strain ATCC49766 (Haemophilus Influenzae) for the entry CC[C@H]1OC(=O)[C@H](C)C(=O)[C@H](C)[C@@H](O[C@@H]2O[C@H](C)C[C@H](N(C)C)[C@H]2O)[C@](C)(OC)C[C@@H](C)C(=O)[C@H](C)[C@H]2N(CCCCn3cnc(-c4cccnc4)c3)C(=O)O[C@]12C [Ketek, telithromycin, reference compound]
Solution: 3.12

Problem: Kindly state the measured H. influenzae Activity, strain ATCC49766 obtained for CCC1OC(=O)CC(O)C(C)C(OC2OC(C)C(O)C(N(C)C)C2O)C(CC=O)CC(C)C(=NOCCCOc2ccc3ncccc3c2)C=CC(C)=CC1CN(C)C (single isomer, unassigned) [Compound Y] with Haemophilus Influenzae.
Solution: 3.12

Problem: Value wanted: H. influenzae Activity, strain ATCC49766 (Haemophilus Influenzae) of entry CCC1OC(=O)CC(O)C(C)C(OC2OC(C)C(O)C(N(C)C)C2O)C(CC=O)CC(C)C(=NOCCCOc2ccc3ncccc3c2)C=CC(C)=CC1COC(=O)NCc1ccccc1 (centres unmarked) [Compound DD]
Solution: 12.5

Problem: Provide the documented H. influenzae Activity, strain ATCC49766 with Haemophilus Influenzae as the system for CCC1OC(=O)CC(O)C(C)C(OC2OC(C)C(O)C(N(C)C)C2O)C(CC=O)CC(C)C(=NOCCCOc2ccc3ncccc3c2)C=CC(C)=CC1CN(C)C (single isomer, unassigned) [Compound Z]
Solution: 3.12

Problem: What reported H. influenzae Activity, strain ATCC49766 corresponds to CCC1OC(=O)CC(O)C(C)C(OC2OC(C)C(O)C(N(C)C)C2O)C(CC=O)CC(C)C(=NOCC=Cc2cnc3ccccc3c2)C=CC(C)=CC1COC(=O)NCc1ccccc1 (centres unmarked) [Compound FF] on Haemophilus Influenzae?
Solution: 12.5
